Measured pEC50 by item
- measured.on: hS1P1R (hEdg1) membrane protein (Homo sapiens)
- measurement.notes: hS1P1R GTPγS binding assay (Assay 3a)
pEC50: −log10 of the molar value.

N[C@H](CO)COc1cc(Cl)c(-c2nnc(-c3cc(F)cc(Br)c3)s2)cc1F
5.55 to 6.60
CC(C)N(C)c1cc(-c2nnc(-c3cc(F)c(OCC(N)CO)cc3Cl)s2)cc(Cl)n1 (centres unmarked)
7.30 to 8.00
CC(C)Oc1ccc(-c2nnc(-c3cc(F)c(OC[C@H](N)[C@H](C)O)cc3Cl)s2)cc1Cl
7.30 to 8.00
N[C@H](CO)COc1cc(Cl)c(-c2nnc(-c3cccc(Cl)c3)s2)cc1F
5.55 to 6.60
CC(C)Nc1ccc(-c2nnc(-c3cc(F)c(OC[C@@H](N)COP(=O)(O)O)cc3Cl)s2)cn1
≥ 8.00
CC(C)Nc1ccc(-c2nnc(-c3cc(F)c(OC[C@@H](N)[C@H](C)OP(=O)(O)O)cc3Cl)s2)cn1
≥ 8.00

*Q* For the compound CC(C)Oc1ccc(-c2nnc(-c3cc(F)c(OC[C@@H](N)[C@H](C)OP(=O)(O)O)cc3Cl)s2)cc1Cl , what pEC50 is on record?
*A* ≥ 8.00

*Q* Form field: reported pEC50 of CC(C)Nc1ccc(-c2nnc(-c3cc(F)c(OCC(N)CO)cc3Cl)s2)cn1 (centres unmarked)
*A* 5.55 to 6.60

*Q* If you can, please state the reported pEC50 value of CC(C)Oc1ccc(-c2nnc(-c3cc(F)c(OC[C@H](N)[C@@H](C)O)cc3Cl)s2)cc1Cl .
*A* ≥ 8.00

----------
- measured.on: S1P3 (Homo sapiens)
- Construct: host or cells: HEK293 (transient transfection)
- Sequence (P32121 whole entry): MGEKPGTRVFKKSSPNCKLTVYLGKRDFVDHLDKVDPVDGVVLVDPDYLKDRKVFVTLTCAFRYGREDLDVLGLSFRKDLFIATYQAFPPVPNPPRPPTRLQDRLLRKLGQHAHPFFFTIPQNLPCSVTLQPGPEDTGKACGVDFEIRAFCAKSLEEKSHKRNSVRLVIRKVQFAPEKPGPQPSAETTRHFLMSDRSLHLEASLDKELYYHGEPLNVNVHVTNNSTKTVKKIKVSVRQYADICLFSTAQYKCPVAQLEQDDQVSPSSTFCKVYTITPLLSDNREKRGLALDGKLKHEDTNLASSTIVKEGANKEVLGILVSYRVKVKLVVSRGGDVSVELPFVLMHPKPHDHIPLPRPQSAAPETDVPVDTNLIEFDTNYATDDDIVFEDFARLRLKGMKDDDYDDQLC
- Sequence (Q99500 whole entry): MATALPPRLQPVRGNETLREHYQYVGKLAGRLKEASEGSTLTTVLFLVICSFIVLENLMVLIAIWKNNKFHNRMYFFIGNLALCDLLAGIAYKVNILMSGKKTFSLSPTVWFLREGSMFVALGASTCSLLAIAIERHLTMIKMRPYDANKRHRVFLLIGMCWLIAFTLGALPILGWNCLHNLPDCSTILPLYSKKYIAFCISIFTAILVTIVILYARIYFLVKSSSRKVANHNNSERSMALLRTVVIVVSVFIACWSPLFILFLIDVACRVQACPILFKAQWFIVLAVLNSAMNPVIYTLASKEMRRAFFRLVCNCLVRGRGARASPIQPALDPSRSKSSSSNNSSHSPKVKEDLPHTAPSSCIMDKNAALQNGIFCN
- measurement.notes: S1P3 Tango β-arrestin recruitment assay in HEK293 cells (Assay 5)
- Type: cell-based
- assay.setup: read-out: Assay 5 EC50
Collected EC50 values appear next to each entry.

CC(C)Oc1ccc(-c2nnc(-c3cc(Cl)c(OC[C@H](N)CO)c(Cl)c3)s2)cc1Cl [Entry 39]
> 10 µM
CC(C)Nc1ccc(-c2nnc(-c3cc(F)c(OC[C@@H](N)[C@H](C)OP(=O)(O)O)cc3Cl)s2)cn1 [Entry 93]
> 0.25 µM

Now for the compound whose EC50 we want.
*Q* Item under review: CC(C)Oc1ccc(-c2nnc(-c3cc(F)c(OC[C@H](N)[C@H](C)OP(=O)(O)O)cc3Cl)s2)cc1C#N [Entry 53] . Reported EC50?
*A* > 10 µM

----------
- measured.on: hS1P1R (hEdg1) membrane protein (Homo sapiens, UniProt P21453)
- Sequence (P21453 whole entry): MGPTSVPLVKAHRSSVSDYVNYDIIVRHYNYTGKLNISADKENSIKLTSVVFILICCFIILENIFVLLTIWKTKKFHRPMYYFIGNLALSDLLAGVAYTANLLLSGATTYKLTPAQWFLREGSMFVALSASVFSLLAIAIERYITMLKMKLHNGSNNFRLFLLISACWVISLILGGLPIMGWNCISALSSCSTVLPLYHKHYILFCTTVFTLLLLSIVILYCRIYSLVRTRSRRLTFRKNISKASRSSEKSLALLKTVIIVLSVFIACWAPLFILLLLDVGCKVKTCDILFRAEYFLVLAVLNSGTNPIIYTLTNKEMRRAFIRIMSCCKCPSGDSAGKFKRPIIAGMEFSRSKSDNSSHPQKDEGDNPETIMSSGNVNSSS
- measurement.notes: hS1P1R GTPγS binding assay (Assay 3a)
readout.name: EC50

Worked examples, 4 compounds total:
CC(C)Nc1ccc(-c2nnc(-c3cc(F)c(OC[C@H](N)CO)cc3Cl)s2)cc1Cl [Entry 43]
≤ 10 nM
CC(C)Oc1ncc(-c2nnc(-c3cc(F)c(OC[C@@H](N)CO)cc3Cl)s2)cc1Cl [Entry 32]
10 to 50 nM
CC(C)Nc1ccc(-c2nnc(-c3cc(F)c(OC[C@H](N)COP(=O)(O)O)cc3Cl)s2)cn1 [Entry 52]
≤ 10 nM
CC(C)Oc1ccc(-c2nnc(-c3cc(F)c(OC[C@@H](N)[C@H](C)O)cc3Cl)s2)cc1Cl [Entry 71]
≤ 10 nM

*Q* // lookup EC50 for CC(C)Nc1ccc(-c2nnc(-c3cc(F)c(OC[C@H](N)[C@H](C)OP(=O)(O)O)cc3Cl)s2)cn1 [Entry 54]
*A* ≤ 10 nM

*Q* Given CC(C)Oc1ccc(-c2nnc(-c3cc(F)c(OC[C@H](N)CO)cc3Cl)s2)cc1C(N)=O [Entry 80] , state its recorded EC50.
*A* 250 to 2800 nM

*Q* # EC50 lookup, item CC(C)Oc1ccc(-c2nnc(-c3cc(F)c(OCC(N)CO)cc3Cl)s2)nc1Cl (centres unmarked) [Entry 14]
*A* 10 to 50 nM

*Q* // EC50 lookup, key: Cc1cc(-c2nnc(-c3cc(F)c(OC[C@H](N)[C@@H](C)O)cc3Cl)s2)cc(NC(C)C)n1 [Entry 62]
*A* ≤ 10 nM

*Q* Request the reported EC50 associated with CC(C)Oc1ccc(-c2nnc(-c3ccc(OC[C@H](N)CO)cc3Cl)s2)cc1Cl [Entry 34]
*A* 10 to 50 nM

*Q* For CCOc1ccc(-c2nnc(-c3cc(F)c(OC[C@H](N)CO)cc3Cl)s2)cc1Cl [Entry 25] , what is its reported EC50?
*A* 10 to 50 nM

*Q* Fill in the blank: the reported EC50 of Cc1cc(-c2nnc(-c3cc(F)c(OC[C@H](N)[C@@H](C)OP(=O)(O)O)cc3Cl)s2)cc(NC(C)C)n1 [Entry 94] is ____.
*A* ≤ 10 nM

FYI, the data here is from patent US20100249071A1.
